Cited source: patent US12662489B2

Target: MTHFD1 recombinant human enzyme (Homo sapiens, UniProt P11586)
Sequence (P11586 2-291 limits assumed): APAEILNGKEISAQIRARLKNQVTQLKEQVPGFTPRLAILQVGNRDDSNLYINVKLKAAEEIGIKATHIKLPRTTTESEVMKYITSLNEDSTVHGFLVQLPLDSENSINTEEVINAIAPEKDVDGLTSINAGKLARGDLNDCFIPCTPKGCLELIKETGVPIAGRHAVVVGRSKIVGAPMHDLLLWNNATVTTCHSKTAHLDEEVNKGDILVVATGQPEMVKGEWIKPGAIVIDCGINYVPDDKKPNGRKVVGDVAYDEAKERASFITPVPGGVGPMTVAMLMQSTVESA
Assay: MTHFD1 inhibition assay (NAD(P)H-Glo luminescence)
Conditions: MTHFD1 IC50, recombinant human enzyme 200 nM, NADP, band
Experimental Endpoint: IC50

Example entries begin here.
>  <Compound>
CCOc1c(C(=O)NS(=O)(=O)N2C3CCCC2CC3)ccc(C(=O)N2CCc3c(c(=O)oc4c(C)c(N5CCN(C)[C@@H](COC)C5)cc(C)c34)C2)c1F

>  <IC50>
10 to 100 nM

$$$$
>  <Compound>
COC[C@H]1CN(c2cc(C)c3c4c(c(=O)oc3c2C)CN(C(=O)c2ccc(C(=O)NS(=O)(=O)N3CCCCC3)c(OC)c2F)CC4)CCN1C

>  <IC50>
100 to 1000 nM

$$$$
>  <Compound>
COC[C@H]1CN(c2ccc3c4c(c(=O)oc3c2Cl)CN(C(=O)c2ccc(C(=O)NS(=O)(=O)N(C)C(C)C)c(OC3CCC3)c2F)CC4)CCN1C

>  <IC50>
10 to 100 nM

$$$$
>  <Compound>
CCc1cc(N2CCN(C)[C@@H](COC)C2)c(C)c2oc(=O)c3c(c12)CCN(C(=O)c1cc(N(C)C)c(C(=O)NS(=O)(=O)N2CCCC2)cc1F)C3

>  <IC50>
1000 to 5000 nM

$$$$

Exercise: Find the recorded IC50 belonging to `COC[C@H]1CN(c2cc(C)c3c4c(c(=O)oc3c2C)CN(C(=O)c2ccc(C(=O)NS(=O)(=O)N3CCCC3)cc2F)CC4)CCN1C` and report it.
Key: 1000 to 5000 nM

Exercise: Data request, read-out IC50, for `COC[C@H]1CN(c2cc(Cl)c3c4c(c(=O)oc3c2C)CN(C(=O)c2cc(F)c(C(=O)NS(=O)(=O)N3CCCC3)cc2OC)CC4)CCN1C`
Key: 1000 to 5000 nM

Exercise: I have this compound here, COC[C@H]1CN(c2cc(C)c3c4c(c(=O)oc3c2C)CN(C(=O)c2cc(F)c(C(=O)NS(=O)(=O)N(C)C)c(N3CC5CC5C3)c2)CC4)CCN1C (stereo partly drawn) , and I need its recorded IC50.
Key: 1 to 10 nM

Exercise: Requested field: IC50. Item: `CCOc1cc(C(=O)N2CCc3c(c(=O)oc4c(C)c(N5CCN(C)[C@@H](COC)C5)cc(C)c34)C2)c(F)cc1C(=O)NS(=O)(=O)N1CCCC1`
Key: 100 to 1000 nM

Exercise: Suppose we examine the compound `COC[C@H]1CN(c2cc(Cl)c3c4c(c(=O)oc3c2C)CN(C(=O)c2cc(OC)c(C(=O)NS(=O)(=O)N(C3CC3)C3CC3)cc2F)CC4)CCN1C` ; what IC50 value has been reported?
Key: 100 to 1000 nM

Exercise: I am curious: what IC50 value has been reported for `CCOc1c(C(=O)NS(=O)(=O)N2CC3CCC(C3)C2)ccc(C(=O)N2CCc3c(c(=O)oc4c(C)c(N5CCN(C)[C@@H](COC)C5)ccc34)C2)c1F` ?
Key: 10 to 100 nM

Exercise: Would you mind telling me what IC50 value was observed for COC[C@H]1CN(c2cc(C)c3c4c(c(=O)oc3c2C)CN(C(=O)c2cc(OC3CC3)c(C(=O)NS(=O)(=O)N3CC5CC5C3)cc2F)CC4)CCN1C (stereo partly drawn) ?
Key: 10 to 100 nM

Exercise: If you can, please state the reported IC50 value of `CCOc1c(C(=O)NS(=O)(=O)N2C3CCC2CC3)ccc(C(=O)N2CCc3c(c(=O)oc4c(CC)c(N5CCN(C)[C@@H](COC)C5)ccc34)C2)c1F` .
Key: 10 to 100 nM

Exercise: // query IC50 value for entry `COC[C@H]1CN(c2ccc3c4c(c(=O)oc3c2C)CN(C(=O)c2ccc(C(=O)NS(=O)(=O)N(C)C(C)C)c(OC3CCCC3)c2F)CC4)CCN1C`
Key: 1 to 10 nM

Exercise: Reported IC50 for `COC[C@H]1CN(c2cc(C)c3c4c(c(=O)oc3c2C)CN(C(=O)c2ccc(C(=O)NS(=O)(=O)N3CCCC3)c(OC3CCC3)c2)CC4)CCN1C` : what is it?
Key: 100 to 1000 nM

Exercise: Fill blank: measured IC50 of the compound `COC[C@H]1CN(c2cc(C)c3c4c(c(=O)oc3c2C)CN(C(=O)c2cc(N(C)C)c(C(=O)NS(=O)(=O)N3CCC[C@@H]3COC)cc2F)CC4)CCN1C` is ____.
Key: 1000 to 5000 nM
